Numbers sourced from patent US20220340894A1.

target: T1, HLA-A2/MAGE-A4 complex (HLA-A*02:01 extracellular domain, human β2m, MAGE-A4 peptide 230-239) (human, UniProt P04439 25-299 at identity 0.94); P61769 21-119); experiment: phage display biopanning and screening of the lambda and optimized kappa libraries
T1 construct: also called MAGE-A4/HLA-A2 complex; pMHC

binder: M0865 scFv (scFv, Rabbit scFv from the biopanning screen) scFv: PAALMESGGRLVTPGTPLTLTCTVSGIDLSTFAMTWVRQAPGKGLEWLGIINTGGSAYYTSWAKGRFTISRTSTTVDLKITSPTTEDTATYFCARGDWSSATDLWGQGTLVTISSGGGGSGGGGSGGGGSGGGGASDPDMTQTPSSVSAAVGGTVTINCQASQSVYDNKVLAWYRQKPGQPPKLLIYKASTLASGVPSRFKGRGSGTQFTLTISGVQADDAATYYCLGEFSCSSADCHAFGGGTELEIL
binding result: binds
//
binder: M0862 scFv (scFv, Rabbit scFv from the biopanning screen) scFv: PEQLMESGGGLVTPGGVLTLTCTASGFSFSSYGVNWVRQAPGKGLEWIGFIFGDGTTYYANWAKGRFTISKTSTTVDLKMTSPTTEDTATYFCARDGYGGYDYIINLWGQGTLVTVSSGGGGSGGGGSGGGGSGGGGASAQVLTQTPASVSAAVGGTVSISCQSSQSVVNNNWLAWYQQKPGQPPKLLIYKASTLESGVPSRFKGSGSGTQFTLTISGVQADDAATYYCLGEFSCSSADCHAFGGGTELEIL
binding result: binds
